property.label: melting point

Request: Need melting point, item Cc1c(Cl)c(Oc2c(Cl)cc(C(F)(F)F)cc2Cl)nn1C(=O)NCCCl
Response: 141 to 143 °C

Request: Fill in the blank: the reported melting point of CCOC(=O)N1C(=O)C2(COc3cc4c(cc32)OCCO4)c2ccccc21 (stereo unspecified) is ____.
Response: 198 to 200 °C

Request: Can you share its melting point? I mean this molecule: CCOC(=O)C1=Cc2cc(C(O)C(F)(F)F)ccc2OC1C(F)(F)F (stereo unspecified)
Response: 114 to 120 °C

Request: Consider the molecule shown here: C#CCN1CCC[C@H](NCc2ccccc2OC)[C@@H]1c1ccccc1 (relative stereo) What is its recorded melting point?
Response: 147 to 149 °C

Request: Any idea what its melting point is? The molecule is Cc1cc(CCCOc2c(C)cc(-c3noc(CI)n3)cc2C)on1
Response: 89 to 90 °C

Request: What melting point value was documented for this molecule, COC(=O)CCCC#Cc1cc(Cl)ccc1NS(=O)(=O)c1ccc2nc(C)sc2c1 ?
Response: 103 to 106 °C

Request: What melting point value was documented for this molecule, COc1cc2c(cc1O)CN(C(=O)OC(C)(C)C)CC2 ?
Response: 80 to 83 °C

Request: Fill in: melting point of O=S(=O)(NCCO)c1ccc(Nc2nc(OCC3CCCCC3)c3nc[nH]c3n2)cc1 is ___
Response: 158 to 160 °C

Request: Need melting point, item Cc1ccccc1-c1cn(C)cc(-c2cccc(Cl)c2)c1=O
Response: 171 to 173 °C

Request: # lookup: melting point of CC(C)Sc1cn(C)cc(-c2cccc(C(F)(F)F)c2)c1=O
Response: 93 to 94 °C

Request: What melting point value was documented for this molecule, CCOC(=O)COc1cc(O)c2c(=O)cc(-c3ccc(OC)c(OCC(=O)N4CCN(Cc5ccc(OC)c(OC)c5OC)CC4)c3)oc2c1 ?
Response: 105 to 106 °C

Request: Which melting point value is on record for O=[N+]([O-])c1c(Br)nn(CCO)c1NCCO ?
Response: 132 to 134 °C

Request: Query (molecule): CCOc1nc(Cc2ccc(Cl)cc2)nc(O)c1NC(=O)c1ccco1 ; field requested: melting point
Response: 91.5 to 92.5 °C

Request: # melting point lookup, item CC(C)C[N+]([O-])=Cc1ccccc1
Response: 73 to 75 °C

Request: Reported melting point for O=C1c2cc(CCCCOC(=O)C(F)(F)F)ccc2OCc2ccsc21 : what is it?
Response: 65.5 to 67 °C

Request: For the molecule COC(=O)C(CO)N(Cc1ccccc1N)S(=O)(=O)c1ccc(OC)cc1 (stereo unspecified) , what melting point is on record?
Response: 138 to 140 °C

Request: Need melting point, item O=C(O)CCC(=O)c1ccc(N2CCCCC2)cc1
Response: 150 to 151 °C

Request: Data request, read-out melting point, for Fc1cc(/C=C/c2nc(COc3ccc(CCCCn4ccnn4)cc3)co2)ccc1Cl
Response: 146 to 149 °C

Request: Please give the measured melting point for this molecule: Cc1ncsc1CCNC(=O)c1cnc(N2CCN(C(=O)c3c(-c4ccccc4)n(C)c4cccnc34)CC2)cn1
Response: 225 °C

Request: GET /values?readout=melting point&item= CCCc1c(OCCCCc2ccc3c(Cl)c(OC)c(OC)c(Cl)c3c2)ccc(C(=O)OCc2ccccc2)c1O
Response: 66 to 68 °C

Request: // returns reported melting point for input CC(=O)OCC(=O)Nc1cccc(NC(=O)COC(C)=O)c1C#N
Response: 151 to 153 °C

Request: I am curious: what melting point value has been reported for Cc1cc(=O)n(-c2c(Cl)cc(C(F)(F)F)cc2Cl)[nH]1 ?
Response: 174 to 175 °C

Request: Data request, read-out melting point, for Cc1cn(-c2ccc(Br)cc2C#N)cn1
Response: 166 °C

Request: What value of melting point has been reported for the following molecule? OCc1cccc2c1CCc1ccsc1-2
Response: 99 to 100 °C

Request: Return reported melting point; argument: Cc1n[nH]c(C)c1Oc1cc(Cl)cc(Cl)c1
Response: 85 to 87 °C

Request: If you can, please state the reported melting point value of CN1CCOc2ccc(S(=O)(=O)n3c(Cc4ccc(C(=O)O)cc4)cc4c(Cl)cccc43)cc21 .
Response: 236 °C
